target: Cyclin-dependent kinase 2/cyclin A (Homo sapiens) (UniProt P24941+P20248+P78396); details: at 10 µM
ENDPOINT LABEL: residual activity
I'd appreciate it if you included the unit after the number.

Using known records, supply residual activity for CO[C@H]1[C@@H](OC)C[C@H](C)[C@@H](OC)C2=CC(=O)C=C(NC(=O)/C(C)=C/C=C/[C@H](OC)[C@@H](OC(N)=O)/C(C)=C/[C@@H]1C)C2=O
83%

---

target: Serine/threonine-protein kinase pim-2 (Homo sapiens) (UniProt Q9P1W9); details: at 1 µM
Sequence (Q9P1W9 whole entry, looked up): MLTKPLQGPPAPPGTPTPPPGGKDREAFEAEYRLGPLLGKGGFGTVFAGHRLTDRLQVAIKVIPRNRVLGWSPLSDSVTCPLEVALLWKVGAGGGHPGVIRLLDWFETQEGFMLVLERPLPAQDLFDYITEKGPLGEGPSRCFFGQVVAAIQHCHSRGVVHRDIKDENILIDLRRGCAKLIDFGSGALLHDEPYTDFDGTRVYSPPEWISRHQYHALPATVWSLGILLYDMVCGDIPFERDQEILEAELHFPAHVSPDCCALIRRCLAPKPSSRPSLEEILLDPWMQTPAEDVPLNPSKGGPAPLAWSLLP
ENDPOINT LABEL: residual activity
Include the unit after the number when you answer.

> print(dat)
                              record.smiles  observed.result
1  N#Cc1cnc2cnc(NCc3cccnc3)cc2c1Nc1ccc(F)c(Cl)c1              84%
2  O=[N+]([O-])c1ccc(-c2nc(-c3ccc(F)cc3)c(-c3ccncc3)[nH]2)cc1             127%
3  O=C1NC(=O)c2c1c1c3ccccc3[nH]c1c1[nH]c3cc(Br)ccc3c21              27%
4     CC(C)n1cnc2c(NCc3ccccc3)nc(NCCCO)nc21             134%
5  Oc1n[nH]c2nnc(-c3c(-c4ccccc4)nn4ccccc34)cc12             123%
6                 CC(=O)c1ccc(N2CCOCC2)cc1O              91%

Now look at this one.
Fill in reported residual activity for this entry: Cc1nc(-c2ccccc2)c(-c2ccncc2)o1
121%
